Hey, just so you know, these numbers are from ChEMBL document CHEMBL6127078.

- Tested target: Proto-oncogene tyrosine-protein kinase receptor Ret (Homo sapiens, UniProt P07949, M918T)
- Sequence (P07949 29-1114 M918T limits assumed): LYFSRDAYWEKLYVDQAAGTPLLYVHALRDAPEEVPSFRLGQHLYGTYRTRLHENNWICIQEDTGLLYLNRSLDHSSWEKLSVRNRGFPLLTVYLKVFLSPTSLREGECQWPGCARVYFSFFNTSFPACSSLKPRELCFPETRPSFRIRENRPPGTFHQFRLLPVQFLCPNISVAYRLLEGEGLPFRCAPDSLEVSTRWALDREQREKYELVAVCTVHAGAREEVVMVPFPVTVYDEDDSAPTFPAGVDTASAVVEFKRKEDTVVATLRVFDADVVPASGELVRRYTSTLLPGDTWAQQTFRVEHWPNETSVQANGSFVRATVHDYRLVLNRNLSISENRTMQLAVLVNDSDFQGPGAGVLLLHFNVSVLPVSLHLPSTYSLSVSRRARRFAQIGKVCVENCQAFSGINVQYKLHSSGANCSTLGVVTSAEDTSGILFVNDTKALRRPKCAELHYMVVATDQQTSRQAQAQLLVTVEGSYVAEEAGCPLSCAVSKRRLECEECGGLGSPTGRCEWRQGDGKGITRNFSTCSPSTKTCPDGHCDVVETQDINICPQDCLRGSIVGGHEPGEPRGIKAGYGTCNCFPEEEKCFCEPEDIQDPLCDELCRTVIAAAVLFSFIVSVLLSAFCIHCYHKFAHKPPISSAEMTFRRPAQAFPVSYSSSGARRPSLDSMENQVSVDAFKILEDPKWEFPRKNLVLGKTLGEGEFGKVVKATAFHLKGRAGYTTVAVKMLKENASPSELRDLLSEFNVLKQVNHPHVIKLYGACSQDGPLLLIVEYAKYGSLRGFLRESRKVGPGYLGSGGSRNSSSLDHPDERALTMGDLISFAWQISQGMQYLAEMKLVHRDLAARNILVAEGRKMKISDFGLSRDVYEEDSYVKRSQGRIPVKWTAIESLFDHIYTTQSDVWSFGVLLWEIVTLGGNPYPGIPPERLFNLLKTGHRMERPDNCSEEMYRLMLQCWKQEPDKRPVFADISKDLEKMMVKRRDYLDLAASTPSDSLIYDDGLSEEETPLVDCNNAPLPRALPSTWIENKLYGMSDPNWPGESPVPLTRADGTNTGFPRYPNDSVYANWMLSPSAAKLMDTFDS
- Protocol details: Inhibition of RET M918T mutant (unknown origin) by FRET-based ZLyte kinase assay
pIC50: −log10 of the molar value.
Response key: 1.0 means pIC50 >= 8; 0.0 means pIC50 < 8.

Request: For this compound, is measured pIC50 8 or higher? "Cn1cc(-c2cc3ncccc3c(-c3ccc(N4CC5CC(C4)N5C(=O)Cc4cccc(F)c4)nc3)n2)cn1"
Response: 1.0

Request: For this compound, is measured pIC50 8 or higher? "COc1ccc(CN2C3CC2CN(c2ccc(-c4cccc5nccnc45)cn2)C3)cn1"
Response: 0.0

Request: For this compound, is measured pIC50 8 or higher? "COc1ccc(CN2C3CC2CN(c2ccc(-c4nc(-c5cnn(C)c5)cc5ncccc45)cn2)C3)cc1C#N"
Response: 1.0

Request: For this compound, is measured pIC50 8 or higher? "COc1ccc(CN2C3CC2CN(c2ccc(-c4nc(C)cc5ncccc45)cn2)C3)cn1"
Response: 0.0

Request: For this compound, is measured pIC50 8 or higher? "COc1ccc(CC(=O)N2C3CC2CN(c2ccc(-c4nc(-c5cnn(C)c5)cc5ncccc45)cn2)C3)cn1"
Response: 1.0

Request: For this compound, is measured pIC50 8 or higher? "COc1ccc(CN2C3CC2CN(c2ccc(-c4nc(-c5ccn(C)n5)cc5ncccc45)cn2)C3)cn1"
Response: 0.0

Request: For this compound, is measured pIC50 8 or higher? "COc1ccc(CN2C3CC2CN(c2ccc(-c4cccc5cnccc45)cn2)C3)cn1"
Response: 0.0

Request: For this compound, is measured pIC50 8 or higher? "Cn1cc(-c2cc3ncccc3c(-c3ccc(N4CC5CC(C4)N5C(=O)CN4CCOCC4)nc3)n2)cn1"
Response: 0.0

Request: For this compound, is measured pIC50 8 or higher? "COc1ccc(CN2C3CC2CN(c2ccc(-c4nc(Cl)cc5ncccc45)cn2)C3)cn1"
Response: 0.0

Request: For this compound, is measured pIC50 8 or higher? "COc1ccc(CN2C3CC2CN(c2ccc(-c4nc(-c5cnn(C)c5)cc5ncccc45)cn2)C3)cc1F"
Response: 1.0

Request: For this compound, is measured pIC50 8 or higher? "COc1ccc(CN2C3CC2CN(c2ccc(-c4nc(-c5ccncc5)cc5ncccc45)cn2)C3)cn1"
Response: 0.0

Request: For this compound, is measured pIC50 8 or higher? "Cn1cc(-c2cc3ncccc3c(-c3ccc(N4CC5CC(C4)N5Cc4ccc(Cl)nc4)nc3)n2)cn1"
Response: 1.0

Request: For this compound, is measured pIC50 8 or higher? "COc1ccc(CN2C3CC2CN(c2ccc(-c4nc(-c5cnn(C)c5)cc5ncccc45)cn2)C3)cc1[N+](=O)[O-]"
Response: 0.0

Request: For this compound, is measured pIC50 8 or higher? "COc1ccc(CN2C3CC2CN(c2ccc(-c4nc(-c5ccc(F)cc5)cc5ncccc45)cn2)C3)cn1"
Response: 0.0

Request: For this compound, is measured pIC50 8 or higher? "COc1ccc(CN2C3CC2CN(c2ccc(-c4nccc5ncccc45)cn2)C3)cn1"
Response: 0.0

Request: For this compound, is measured pIC50 8 or higher? "COc1ccc(CN2C3CC2CN(c2ccc(-c4nc(C5CC5)cc5ncccc45)cn2)C3)cn1"
Response: 0.0

Request: For this compound, is measured pIC50 8 or higher? "COc1ccc(CN2C3CC2CN(c2ccc(-c4nc(-c5cc[nH]n5)cc5ncccc45)cn2)C3)cn1"
Response: 0.0

Request: For this compound, is measured pIC50 8 or higher? "COc1ccc(CN2C3CC2CN(c2ccc(-c4nc(-c5cnn(C)c5)cc5ncccc45)cn2)C3)cn1"
Response: 1.0

Request: For this compound, is measured pIC50 8 or higher? "Cn1cc(-c2cc3ncccc3c(-c3ccc(N4CC5CC(C4)N5Cc4cccnc4)nc3)n2)cn1"
Response: 0.0

Request: For this compound, is measured pIC50 8 or higher? "COc1ccc(CN2C3CC2CN(c2ccc(-c4cccc5ncncc45)cn2)C3)cn1"
Response: 0.0

Request: For this compound, is measured pIC50 8 or higher? "COc1ccc(CN2C3CC2CN(c2ccc(-c4cccc5c4OCCO5)cn2)C3)cn1"
Response: 0.0

Request: For this compound, is measured pIC50 8 or higher? "COc1ccc(CN2C3CC2CN(c2ccc(-c4nc(-c5cnn(C)c5)cc5ncccc45)cn2)C3)cc1"
Response: 1.0

Request: For this compound, is measured pIC50 8 or higher? "COc1ccc(CN2C3CC2CN(c2ccc(-c4nc(-c5cnn(C)c5)cc5ncccc45)cn2)C3)cc1Br"
Response: 0.0

Request: For this compound, is measured pIC50 8 or higher? "COc1ccc(CN2C3CC2CN(c2ccc(-c4nc(-c5cnn(C)c5)cc5ncccc45)cn2)C3)cc1N"
Response: 0.0

Request: For this compound, is measured pIC50 8 or higher? "COc1ccc(CN2C3CC2CN(c2ccc(-c4cccc5ncccc45)cn2)C3)cn1"
Response: 0.0

Request: For this compound, is measured pIC50 8 or higher? "Cn1cc(-c2cc3ncccc3c(-c3ccc(N4CC5CC(C4)N5C(=O)CC4CCOCC4)nc3)n2)cn1"
Response: 0.0

----------
- Tested target: Proto-oncogene tyrosine-protein kinase receptor Ret (Homo sapiens, UniProt P07949, V804L)
- Sequence (P07949 29-1114 V804L limits assumed): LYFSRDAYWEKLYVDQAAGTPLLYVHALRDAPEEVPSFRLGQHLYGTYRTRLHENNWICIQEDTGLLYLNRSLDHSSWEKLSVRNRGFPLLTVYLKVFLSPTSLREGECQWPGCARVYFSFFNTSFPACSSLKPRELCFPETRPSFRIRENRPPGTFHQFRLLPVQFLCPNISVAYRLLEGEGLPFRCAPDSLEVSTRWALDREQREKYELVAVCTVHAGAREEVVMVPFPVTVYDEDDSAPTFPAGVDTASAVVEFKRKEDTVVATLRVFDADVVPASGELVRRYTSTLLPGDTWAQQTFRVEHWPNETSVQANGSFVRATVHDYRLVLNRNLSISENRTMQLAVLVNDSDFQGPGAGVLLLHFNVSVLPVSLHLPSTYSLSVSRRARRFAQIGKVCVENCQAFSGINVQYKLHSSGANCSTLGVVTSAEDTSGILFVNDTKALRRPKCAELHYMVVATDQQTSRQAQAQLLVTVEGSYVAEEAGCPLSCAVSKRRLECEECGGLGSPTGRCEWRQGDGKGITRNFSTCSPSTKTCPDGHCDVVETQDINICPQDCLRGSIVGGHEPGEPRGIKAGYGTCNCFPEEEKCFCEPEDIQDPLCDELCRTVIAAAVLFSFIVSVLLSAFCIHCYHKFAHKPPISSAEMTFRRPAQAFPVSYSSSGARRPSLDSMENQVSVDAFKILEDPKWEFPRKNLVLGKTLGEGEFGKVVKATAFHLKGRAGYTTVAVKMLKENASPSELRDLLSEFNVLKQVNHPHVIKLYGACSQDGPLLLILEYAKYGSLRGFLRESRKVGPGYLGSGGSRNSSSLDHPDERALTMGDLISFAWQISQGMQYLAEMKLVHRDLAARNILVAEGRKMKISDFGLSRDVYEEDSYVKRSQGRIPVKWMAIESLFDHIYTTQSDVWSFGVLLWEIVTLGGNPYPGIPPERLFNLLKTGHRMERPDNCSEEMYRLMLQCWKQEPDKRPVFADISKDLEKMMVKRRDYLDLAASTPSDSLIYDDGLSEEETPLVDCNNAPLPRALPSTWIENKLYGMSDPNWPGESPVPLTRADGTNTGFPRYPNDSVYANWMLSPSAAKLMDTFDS
- Protocol details: Inhibition of RET V804L mutant (unknown origin) by FRET-based ZLyte kinase assay
Recorded metric: pIC50
Remember the convention: pIC50 equals -log10 of concentration in molar.

Lab book: pIC50 of "Cc1ccc(CN2C3CC2CN(c2ccc(-c4nc(-c5cnn(C)c5)cc5ncccc45)cn2)C3)cn1" noted as 7.84

Lab book: pIC50 of "Cn1cc(-c2cc3ncccc3c(-c3ccc(N4CC5CC(C4)N5C(=O)Cc4cccc(F)c4)nc3)n2)cn1" noted as 8.64

Lab book: pIC50 of "Cn1cc(-c2cc3ncccc3c(-c3ccc(N4CC5CC(C4)N5C(=O)CC4CCOCC4)nc3)n2)cn1" noted as 7.04

Lab book: pIC50 of "COc1ccc(CN2C3CC2CN(c2ccc(-c4nc(C)cc5ncccc45)cn2)C3)cn1" noted as 7.73

Lab book: pIC50 of "COc1ccc(CN2C3CC2CN(c2ccc(-c4nc(C5CC5)cc5ncccc45)cn2)C3)cn1" noted as 7.90

Lab book: pIC50 of "COc1ccc(CN2C3CC2CN(c2ccc(-c4nc(-c5ccn(C)n5)cc5ncccc45)cn2)C3)cn1" noted as 7.68

Lab book: pIC50 of "COc1ccc(CN2C3CC2CN(c2ccc(-c4nc(-c5cnn(C)c5)cc5ncccc45)cn2)C3)cc1F" noted as 9.52

----------
- Tested target: Proto-oncogene tyrosine-protein kinase receptor Ret (Homo sapiens, UniProt P07949, G810R)
- Sequence (P07949 29-1114 G810R limits assumed): as the sequence (P07949 29-1114 V804L limits assumed) above, with L776V, G782R counted along it
- Protocol details: Inhibition of RET G810R mutant (unknown origin) by FRET-based ZLyte kinase assay
Please go through the items and note down their pIC50.
Remember the convention: pIC50 equals -log10 of concentration in molar.

Lab book: pIC50 of "Cn1cc(-c2cc3ncccc3c(-c3ccc(N4CC5CC(C4)N5C(=O)Cc4cccc(Cl)c4)nc3)n2)cn1" noted as 6.75

Lab book: pIC50 of "COc1ccc(CN2C3CC2CN(c2ccc(-c4cccc5ncncc45)cn2)C3)cn1" noted as 6.51

Lab book: pIC50 of "COc1ccc(CN2C3CC2CN(c2ccc(-c4nc(-c5cnn(C)c5)cc5ncccc45)cn2)C3)cc1C(F)(F)F" noted as 6.94

Lab book: pIC50 of "COc1ccc(CN2C3CC2CN(c2ccc(-c4nc(-c5ccn(C)n5)cc5ncccc45)cn2)C3)cn1" noted as 7.01

Lab book: pIC50 of "COc1ccc(CN2C3CC2CN(c2ccc(-c4nc(-c5cnn(C)c5)cc5ncccc45)cn2)C3)cc1F" noted as 7.42

Lab book: pIC50 of "Cn1cc(-c2cc3ncccc3c(-c3ccc(N4CC5CC(C4)N5Cc4ccc(F)nc4)nc3)n2)cn1" noted as 6.63

----------
- System: BaF3
- Protocol details: Antiproliferative activity against mouse BaF3 cells harbouring KIF5B-RET V804L mutant assessed as inhibition of cell viability
- Format: functional, cell-based
Recorded metric: IC50
Dear colleague, please send the value followed by its unit.

Lab book: IC50 of COc1ccc(CN2C3CC2CN(c2ccc(-c4cc(OCC(C)(C)O)cn5ncc(C#N)c45)cn2)C3)cn1 [SELPERCATINIB] noted as 17.8 nM

----------
Please go through the items and note down their IC50.
// return numeric value only (unit: nM, not printed)

Record "Cn1cc(-c2cc3ncccc3c(-c3ccc(N4CC5CC(C4)N5C(=O)CC4CCOCC4)nc3)n2)cn1" has Proto-oncogene tyrosine-protein kinase receptor Ret (Homo sapiens) IC50 equal to 62.2

Record "COc1ccc(CN2C3CC2CN(c2ccc(-c4nc(-c5cnn(C)c5)cc5ncccc45)cn2)C3)cc1Cl" has Proto-oncogene tyrosine-protein kinase receptor Ret (Homo sapiens) IC50 equal to 25.1

Record "Cn1cc(-c2cc3ncccc3c(-c3ccc(N4CC5CC(C4)N5C(=O)Cc4cc(F)cc(F)c4)nc3)n2)cn1" has Proto-oncogene tyrosine-protein kinase receptor Ret (Homo sapiens) IC50 equal to 6.7

Record "Cn1cc(-c2cc3ncccc3c(-c3ccc(N4CC5CC(C4)N5C(=O)CN4CCOCC4)nc3)n2)cn1" has Proto-oncogene tyrosine-protein kinase receptor Ret (Homo sapiens) IC50 equal to 112

Record "COc1ccc(CN2C3CC2CN(c2ccc(-c4nc(-c5ccncc5)cc5ncccc45)cn2)C3)cn1" has Proto-oncogene tyrosine-protein kinase receptor Ret (Homo sapiens) IC50 equal to 166

Record "COc1ccc(CN2C3CC2CN(c2ccc(-c4cccc5ncccc45)cn2)C3)cn1" has Proto-oncogene tyrosine-protein kinase receptor Ret (Homo sapiens) IC50 equal to 198

Record "COc1ccc(CN2C3CC2CN(c2ccc(-c4cccc5cnccc45)cn2)C3)cn1" has Proto-oncogene tyrosine-protein kinase receptor Ret (Homo sapiens) IC50 equal to 591

Record "Cc1ccc(CN2C3CC2CN(c2ccc(-c4nc(-c5cnn(C)c5)cc5ncccc45)cn2)C3)cn1" has Proto-oncogene tyrosine-protein kinase receptor Ret (Homo sapiens) IC50 equal to 12.5

Record "COc1ccc(CN2C3CC2CN(c2ccc(-c4nc(-c5cnn(C)c5)cc5ncccc45)cn2)C3)cc1N" has Proto-oncogene tyrosine-protein kinase receptor Ret (Homo sapiens) IC50 equal to 166

Record "COc1ccc(CC(=O)N2C3CC2CN(c2ccc(-c4nc(-c5cnn(C)c5)cc5ncccc45)cn2)C3)cn1" has Proto-oncogene tyrosine-protein kinase receptor Ret (Homo sapiens) IC50 equal to 5.7

Record "COc1ccc(CN2C3CC2CN(c2ccc(-c4cccc5ncncc45)cn2)C3)cn1" has Proto-oncogene tyrosine-protein kinase receptor Ret (Homo sapiens) IC50 equal to 86.3

Record "COc1ccc(CN2C3CC2CN(c2ccc(-c4nc(-c5cn[nH]c5)cc5ncccc45)cn2)C3)cn1" has Proto-oncogene tyrosine-protein kinase receptor Ret (Homo sapiens) IC50 equal to 5.9

Record "Cn1cc(-c2cc3ncccc3c(-c3ccc(N4CC5CC(C4)N5Cc4cccnc4)nc3)n2)cn1" has Proto-oncogene tyrosine-protein kinase receptor Ret (Homo sapiens) IC50 equal to 26.7

Record "COc1ccc(CN2C3CC2CN(c2ccc(-c4nc(C)cc5ncccc45)cn2)C3)cn1" has Proto-oncogene tyrosine-protein kinase receptor Ret (Homo sapiens) IC50 equal to 28.5

Record "COc1ccc(CN2C3CC2CN(c2ccc(-c4nc(-c5cnn(C)c5)cc5ncccc45)cn2)C3)cc1C#N" has Proto-oncogene tyrosine-protein kinase receptor Ret (Homo sapiens) IC50 equal to 3.2

Record "COc1ccc(CN2C3CC2CN(c2ccc(-c4nc(C5CC5)cc5ncccc45)cn2)C3)cn1" has Proto-oncogene tyrosine-protein kinase receptor Ret (Homo sapiens) IC50 equal to 15.7

Record "Cn1cc(-c2cc3ncccc3c(-c3ccc(N4CC5CC(C4)N5C(=O)Cc4cccc(F)c4)nc3)n2)cn1" has Proto-oncogene tyrosine-protein kinase receptor Ret (Homo sapiens) IC50 equal to 4.8

Record "Cn1cc(-c2cc3ncccc3c(-c3ccc(N4CC5CC(C4)N5C(=O)Cc4cccc(Cl)c4)nc3)n2)cn1" has Proto-oncogene tyrosine-protein kinase receptor Ret (Homo sapiens) IC50 equal to 9.1
